Values from the NIST ThermoML archive (doi:10.1021/je500784s)

Details: 293.2 K; Liquid; Transpiration method
Test readout: vapor or sublimation pressure (kPa)

Completed entries (count: 3):
{"Compound": "Cc1cccc(I)c1 [1-iodo-3-methylbenzene]", "Test readout": "vapor or sublimation pressure", "Experimental result": 0.02683}
{"Compound": "Cc1cccc(Br)c1 [1-bromo-3-methylbenzene]", "Test readout": "vapor or sublimation pressure", "Experimental result": 0.08432}
{"Compound": "Brc1ccccc1 [bromobenzene]", "Test readout": "vapor or sublimation pressure", "Experimental result": 0.4046}

A = Cc1ccccc1Br [2-bromotoluene]
B = Cc1ccccc1I [1-iodo-2-methylbenzene]
Enquiry: Given the listed items, does A or B have the lesser reported vapor or sublimation pressure? Select an item and report its label.
Return: B
(B: 0.0355 kPa, A: 0.1131 kPa)
